# test.description: in vivo
# stated.conditions: SD, rat, po, 10 mg
endpoint.name: AUC(0-t)
Hey, just the number and the unit after it is fine.

// lookup AUC(0-t) for `COc1cc(CNC(=O)CCCC/C=C/C(C)C)ccc1O` 0.23 µg·h/mL

----------
# test.description: in vivo
# stated.conditions: SD, rat, po, 10 mg, Tmax of CAP
endpoint.name: Tmax (h)
Express the result in h but write the number alone.

Look at this compound and give its reported Tmax. COc1cc(CNC(=O)CCCC/C=C/C(C)C)ccc1O [CAP, capsaicin] 3.9

----------
# test.description: in vivo
# stated.conditions: SD, rat, po, 10 mg
endpoint.name: Cmax (ng/mL)
Entry rule: numbers only, all in ng/mL.

Name the reported Cmax value associated with the molecule `COc1cc(CNC(=O)CCCC/C=C/C(C)C)ccc1O` 52.2
